Recorded measurements of inhibition, one per entry
System: HIV-1 integrase (with human LEDGF/p75)
Test: blockers of LEDGF/p75-dependent integrase strand transfer – biochemical, TR-FRET, high throughput, primary screen (AID 743269);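 note: signal is the Cy5 over europium emission ratio at 671 and 618 nm; 0% = plate median of compound wells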
Details: TR-FRET IN-LEDGF/p75 DNA integration, Eu/Cy5; at 3.7 µM; hits give high values
Out of some 370,000 compounds screened, about 2,400 (0.65%) were called active. What follows is part of a selection rich in actives, with near analogues and random picks from the rest.
Readout Kind: inhibition (%)

• CCOC(=O)C1CCN(C(=O)C(C)(C)NC(=O)Nc2ccc(F)c(F)c2)CC1 = 3.2
• O=S(=O)(Cc1noc(-c2ccc(OC(F)(F)F)cc2)n1)c1ccc(F)cc1 = 0.93
• O=C(Nc1cc(F)cc(F)c1)OC1CCC12CCC(c1ccccc1)CC2 (stereo not given) = -2.65
• COC(=O)C[C@@H]1CC[C@H]2[C@@H](COc3ccc(NS(=O)(=O)CC(F)(F)F)cc3C(=O)N2C)O1 = -3.99
• O=C(NCCc1c[nH]c2ccccc12)OCc1cn(-c2c(F)cccc2F)nn1 = 4.42
• Oc1cccc(/C=N/Nc2ccc(Cl)nn2)c1O = 18.5
• c1cncc(CNc2ccnc(-c3ccc4c(c3)OCO4)n2)c1 = 2.55
• CCC(c1ccc(NC(=O)OC(C)(C)C)cc1)c1cc(OC)cc(OC)c1 (stereo not given) = -0.14
• CC(C)CSc1nnc(-c2cccnc2)n1Cc1ccccc1 = 1.09
• CCOC(=O)[C@@]12CN(C(=O)OC(C)(C)C)CC=C1N(Cc1ccc(OC)cc1)C(=O)[C@H]2CC(=O)NCc1ccc(OC)c(OC)c1 = -2.96
• O=S1(=O)c2ccc(Br)cc2OC[C@@H](Cc2ccccc2)N1Cc1cn(Cc2ccco2)nn1 = 5.73
• CC1(C(=O)NS(=O)(=O)c2ccccc2)CCN1C(=O)Cc1ccc(-c2ccccc2)cc1 (stereo not given) = 19.2
• COc1ccccc1C(=O)CSc1nnc(-c2ccccn2)n1-c1ccccc1 = -0.35
• CCOc1ccc(-n2c(SCC(=O)Nc3cc(C)c(NC(=O)c4ccccc4)cc3OC)nnc2-c2cccs2)cc1 = 1.97
• FC(F)(F)c1cccc(Cn2ccc3ccc(-c4ccc5ccn(Cc6ccccc6)c5c4)cc32)c1 = 3.37
• CCOC(=O)C1=C(C)c2ccccc2OC1C(=O)OCC (stereo not given) = 0.5
• CCOC(=O)c1[nH]c(C)c(C(=O)OCC(=O)N2c3ccccc3CC2C)c1C (stereo not given) = 0.57
• CCOc1ccc(N(CC(=O)Nc2c(C)n(C)n(-c3ccccc3)c2=O)S(=O)(=O)c2ccc(Cl)s2)cc1 = 2.7
• CCOC(=O)c1c(C)[nH]c2c1-c1ccccc1C(=O)C2=O = 35
• O=C(CC(Cc1ccccc1)C(=O)O)NCCc1ccc2c(c1)OCO2 (stereo not given) = -1.84

###

Tested on: HIV-1 integrase (with human LEDGF/p75)
Assay: blockers of LEDGF/p75-dependent integrase strand transfer – biochemical, TR-FRET, high throughput, primary screen (AID 743269);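 note: signal is the Cy5 over europium emission ratio at 671 and 618 nm; 0% = plate median of compound wells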
Conditions: TR-FRET IN-LEDGF/p75 DNA integration, Eu/Cy5; at 3.7 µM
Out of some 370,000 compounds screened, about 2,400 (0.65%) were called active.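 The calls were made as follows: active = inhibition above the screen-wide mean plus 3 SD (cut at about 13% in these data); inactive = the rest.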 The full list was thinned out, with actives kept by preference.
Outcomes: true for active, false for inactive

- Clc1ccc(-n2c(COc3ccccc3)nnc2SCc2nc3ccccc3[nH]2)cc1: false
- COc1ccc(-c2cc(-c3nnc(SCc4ccc([N+](=O)[O-])cc4)n3N)[nH]n2)cc1: false
- C[C@@H](NC(=O)c1ccccc1OCC(=O)Nc1ccc(I)cc1)C(=O)N(C)Cc1ccccc1: false
- O=C(CN(C(=O)c1csnn1)c1cccc(Cl)c1)NC1CCCC1: true
- O=C(NC1CCCCC1)N1CCc2[nH]c3ccccc3c2C1: true
- O=C(Nc1cccc2c1CCCC2)C1CCN(C(=O)NC2CCCCC2)CC1: false
- C=C(C)C#CC(Cc1ccccc1)NCC1CC1 (centres undefined): false
- CC(C)N1CCCCC(NC(=O)c2ccc3ccccc3c2)C1=O (centres undefined): false
- CCOC(=O)/C(C#N)=C\c1c(C)cc(C)c(COC(C)=O)c1C: true
- COC(=O)C1CN(CC(C)C)CCS(=O)(=O)N1Cc1ccc(C)cc1 (centres undefined): false
- O=C(CSc1nnc2c(n1)[nH]c1ccccc12)NC1CCCCC1: false
- COc1ccc2[nH]c3c(C)c4cc[n+](C)cc4c(C)c3c2c1: true
- CCC(CO)Nc1cccc2c1S(=O)(=O)N(Cc1cn(Cc3ccccc3C(F)(F)F)nn1)Cc1ccccc1O2 (centres undefined): false
- COC(=O)C[C@@H]1CC[C@@H]2[C@H](COc3ccc(NC(=O)c4cccc(F)c4)cc3C(=O)N2C)O1: false
